Below, each of the molecules is paired with its reported TGI value.
# System: SF-295 CNS
# Run Description: NCI tumour cell line growth inhibition, 48 h
Outcome Measure: TGI

>>> print(df.to_string())
                                    molecule  outcome_measure    result
 0  C[C@]12CCC3c4ccc(O)cc4CC[C@H]3C1CC(=O)NC2=O (stereo partly specified)              TGI   > 10 µM
 1  COc1ccc(C(CC(C)=O)c2c(O)c3ccccc3oc2=O)cc1OC (stereo unspecified)              TGI  > 100 µM
 2  COc1cccc(/C=C(\NC(C)=O)c2nc3ccc(Cl)cc3[nH]2)c1              TGI  > 100 µM
 3  C=C1CCC(OC(C)=O)C2(C)C(OC(C)=O)CC3OC3(C)C2C(OC(C)=O)C2C(C)C(=O)OC2C1Cl (stereo unspecified)              TGI  > 100 µM
 4  O=C(NCCCN1CCC(N2CCCCC2)CC1)C1=Cc2cc(Br)ccc2OC1              TGI   24.8 µM
 5  O=C1C=C(c2[nH]c3ccccc3c2C2=CC(=O)c3ccccc3C2=O)C(=O)c2ccccc21              TGI  > 100 µM
 6                                   O=[As]O              TGI  > 100 µM
 7           CSC(SC)=C(C#N)C(=O)Nc1ccc(C)cc1              TGI  > 100 µM
 8  COc1cc(C2CC(c3cccc(Nc4ccnc5cc(Cl)ccc45)c3)=NN2C=O)cc(OC)c1OC (stereo unspecified)              TGI   3.61 µM
 9    COc1ccc(C2C(C#N)=C(O)NC(O)=C2C#N)cc1OC              TGI  > 100 µM
10       O=C1C(N2CCOCC2)=C(Cl)C(=O)c2ncccc21              TGI   > 10 µM
